- Tested on: K4 kissing-loop RNA reporter;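 also: bound reporter read as fluorescence of individual clusters on recovered sequencing chips by microscopy, with normalized cluster intensities fitted with a binding model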
- Assay Remarks: apparent KD of K4 kissing-loop reporter; higher = weaker reporter binding
- Setup Conditions: Eterna round: R107; input ligand: arginine 13.2 mM
Parameter threshold = 200 nM. Response is Y when apparent KD of K4 kissing-loop reporter meets or exceeds it, else N.

Past entries and their recorded results:
AAAUAAAUCAGAGGAUAUUCUUCCCACGUCGAAGUACCGUGCUUGAUGGAGUGAUGUUCGAUCAGAGAAGAAGGCUGAUAAAUAA [Same State FMN B GF 19] | Y
UACAUCGAGCAGAGUGAUGUUUUGUGCGAUACCAGCAAGUGCAAGUGCCCUUGGCAGCGCAAGCGGUUGUAUGUAGGACCGGACG [theeternabot_exclusion_KL_Theo_A_21] | Y
UGUGUUUACCUGACUCAGUGAUGUUGAGAAGGAGCGUGCUAAUGCACAGGUAGGUCGCUCAACCUAAAUUCAGGUGAGCACUAAA | Y
AUCGUUGUCUGAGGAUAUCGGUUAUCUGUAGUGAUGUUACAGUAUAUUGAUAUUAAAGUUUCUAUUCGAGAAGGCAGACUACGUA [JR_Nu_ExcFMNB_Sub022] | N
GCGCGUCAUGUCAGCGGUGACACUGUCGAUACCAGCGCCGAAAGGCGCCCUUGGCAGCGACGUGCUGGAGUGAUGUUCCAGCGUG [#2 Exclusion - Theophylline A Attempt #25 (HarryS)] | N
UGAUACCAGACUGAUACCAGCCAGUGAUGUUGGCUAAGCCAAAUAGGAGUCAAAGACUCCGGCCCUUGGCAGCAGUCUGGUAUCU [TheoBX 5 #SwitchBubble #StaticStem] | N
GUUACGCAUGGAAGGAGCGCAGGCUCAACAAAUAGCUCAGUGAUGUUGAGCAAAUUAAAACUGCAGGUAGGUCGCCAUGUGUAAC [Ex Arginine B K4 22] | Y
GCGCGUCAUGUCAGCGGUGACACUGUCGAUACCAGUGCCGUAAGGCGCCCUUGGCAGCGACGUGCUGGAGUGAUGUUCCAGCGUU [#2 Exclusion - Theophylline A Attempt #31 (HarryS)] | N

Is apparent KD of K4 kissing-loop reporter for GUUACGCAUGGAAGGAGCGCACUCCGAUUGGGCGACACAGUGAUGUUGUGGUUCGUUCGAAUGCAGGUAGGUCGCCAUGUGUAAC [Ex Arginine B K4 20] at or above 200 nM?
N

Is apparent KD of K4 kissing-loop reporter for GAUAUAGUGAUGUUAUAUACUGAUAGACAACGAGGACCGGUACGGCCGCCACUCGAGAGGGUGAAAAUGGUGAUAAAAUAAUGAU [#03 K4 Tryptophan A Exclusion] at or above 200 nM?
Y

// data source = the supplement of paper PMC9170038
